Just for reference, the supplement of paper PMC9112550 is where these values come from.

Test system: Escherichia coli TOP10
protocol-summary: shrunken log2 fold change of peptide-encoding DNA abundance (4.5 h post-induction vs induction); higher = less antimicrobial activity (less host growth inhibition)
condition-set: time post-induction: 4.5 h; library: site-saturation at positions 5, 18, 19, 20
shrunken log2 fold change reference
Answer with a bare number; do not write a unit.

| entry-sequence | tested-target | assay-value |
| --- | --- | --- |
| RRIRPRPPRLPRPRPRPTIYPRP | Escherichia coli TOP10 | -0.413 |

QUERY: Value wanted: shrunken log2 fold change (Escherichia coli TOP10) of entry RRIRPRPPRLPRPRPRPLPNPRP
RESULT: 0.0283

QUERY: # query: shrunken log2 fold change | item RRIRSRPPRLPRPRPRPGPLPRP | system: Escherichia coli TOP10;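 also: peptides expressed intracellularly from a pBAD plasmid library in pooled LB shake-flask culture, induced with 0.3% L-arabinose, DNA abundance read by NGS, three biological replicates, DESeq2 with apeglm shrinkage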
RESULT: 0.292
